- Assayed system: HLA-A*68:01
- Assay details: IEDB peptide-MHC binding, purified MHC/competitive/radioactivity; filed as Kd, often an IC50 or EC50 that approximates it; bounds were set here for any values at or beyond the usual limits of such assays
- Particulars: source organism: Vaccinia virus WR
pKd: −log10 of the molar value.
Measured attribute: pKd

Previously resolved entries follow.
>>> reported("PLHILASNKK")
"≤ 4.66"
>>> reported("SFKLILAEY")
"≤ 4.59"

[in] Please give the measured pKd for this sequence: IFNEDTSYY
[out] ≤ 4.70

* * *

- Assayed system: HLA-A*03:01
- Assay details: IEDB peptide-MHC binding, purified MHC/direct/fluorescence; filed as Kd, often an IC50 or EC50 that approximates it; bounds were set here for any values at or beyond the usual limits of such assays
- Particulars: source organism: Escherichia coli O157:H7
Measured attribute: Kd

Previously resolved entries follow.
>>> reported("REWGWRIPF")
"≥ 20 µM"
>>> reported("GMAEDLQSL")
"≥ 20 µM"

// next item, Kd requested
[in] Please give the measured Kd for this sequence: IRNPPMVVF
[out] ≥ 20 µM

* * *

Listing of entries alongside the reported Kd.
- Assayed system: HLA-A*33:01
- Assay details: IEDB peptide-MHC binding, purified MHC/competitive/radioactivity; filed as Kd, often an IC50 or EC50 that approximates it; bounds were set here for any values at or beyond the usual limits of such assays
- Particulars: source organism: SARS coronavirus Tor2

>>> reported("QQWIQFMMSR")
"1.45 µM"
>>> reported("ATSTRHPSK")
"≥ 77.7 µM"
>>> reported("ATVVIGTSK")
"≥ 77.7 µM"
>>> reported("KQIANQFNK")
"≥ 77.7 µM"
>>> reported("YTNEIIGYK")
"0.414 µM"

// next item, Kd requested
[in] Please give the measured Kd for this sequence: RVPRNLTLSK
[out] ≥ 70 µM

* * *

- Assayed system: HLA-A*23:01
- Assay details: IEDB peptide-MHC binding, purified MHC/competitive/radioactivity; filed as Kd, often an IC50 or EC50 that approximates it; bounds were set here for any values at or beyond the usual limits of such assays
- Particulars: source organism: SARS coronavirus Tor2
Measured attribute: Kd (µM)
Supply the numeric figure in µM, leaving out any unit text.

>>> reported("SWFITQRNF")
3.9
>>> reported("QYIKWPWYVW")
0.000784
>>> reported("VYHITVSQI")
0.098
>>> reported("DYLVSTQEF")
18.8

[in] Please give the measured Kd for this sequence: NYFKKVDGI
[out] 11.6

* * *

- Assayed system: HLA-A*02:02
- Assay details: IEDB peptide-MHC binding, purified MHC/competitive/radioactivity; filed as Kd, often an IC50 or EC50 that approximates it; bounds were set here for any values at or beyond the usual limits of such assays
- Particulars: source organism: Vaccinia virus WR
Measured attribute: Kd (nM)
Supply the numeric figure in nM, leaving out any unit text.

Previously resolved entries follow.
>>> reported("DINVIGLIVI")
7150
>>> reported("RLRQDTEDIV")
134
>>> reported("GLTTHCTKL")
100
>>> reported("EVERLMELPV")
2460
>>> reported("NITRLEVIGL")
907

[in] Please give the measured Kd for this sequence: DLTALLSCI
[out] 5200

[in] Please give the measured Kd for this sequence: QLLKILDNL
[out] 227
